B1: 3'-5' exoribonuclease 1, residues 65 to 114; numbered along this chain, Q8IV48 (parent)
chain: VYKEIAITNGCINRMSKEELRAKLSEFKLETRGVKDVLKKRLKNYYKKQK

- Variants of: B1
- assay-method-text: abundance fitness (aPCA) (normalised: wild type 0, dead -1); higher = more abundant; growth selection in yeast, the domain comes from the species named
- applied-conditions: Homo sapiens

>  <variant-identifier>
E19S

>  <abundance fitness>
-0.26

$$$$
>  <variant-identifier>
T31N

>  <abundance fitness>
-0.115

$$$$
>  <variant-identifier>
N9A

>  <abundance fitness>
-0.033

$$$$
>  <variant-identifier>
S16P

>  <abundance fitness>
-0.264

$$$$
>  <variant-identifier>
V1F

>  <abundance fitness>
-0.104

$$$$
>  <variant-identifier>
V34T

>  <abundance fitness>
0.046

$$$$
>  <variant-identifier>
T8H

>  <abundance fitness>
-0.268

$$$$
>  <variant-identifier>
L29F

>  <abundance fitness>
-0.688

$$$$
>  <variant-identifier>
L24G

>  <abundance fitness>
-0.97

$$$$
>  <variant-identifier>
R32V

>  <abundance fitness>
-0.471

$$$$
>  <variant-identifier>
L24M

>  <abundance fitness>
-0.507

$$$$
>  <variant-identifier>
G10F

>  <abundance fitness>
-0.323

$$$$
>  <variant-identifier>
D36V

>  <abundance fitness>
-0.292

$$$$
>  <variant-identifier>
S16R

>  <abundance fitness>
-0.097

$$$$
>  <variant-identifier>
N13S

>  <abundance fitness>
-0.272

$$$$
>  <variant-identifier>
L20Q

>  <abundance fitness>
-0.892

$$$$
>  <variant-identifier>
N13D

>  <abundance fitness>
-0.259

$$$$
>  <variant-identifier>
G33T

>  <abundance fitness>
-1.06

$$$$
>  <variant-identifier>
K39R

>  <abundance fitness>
-0.114

$$$$
>  <variant-identifier>
L29Q

>  <abundance fitness>
-0.196

$$$$
>  <variant-identifier>
R32S

>  <abundance fitness>
-0.318

$$$$
>  <variant-identifier>
G33I

>  <abundance fitness>
-0.97

$$$$
